The origin of these recorded values is ChEMBL document CHEMBL3804811.

# Experiment summary: Ratio of drug level in brain to plasma in Harlan nu/nu mouse at 240 mg/kg, po administered per day for 2 weeks measured 6 hrs post last dose by LC-MS/MS analysis
# Type: ADME, organism-based
# Assay conditions: read-out: BPR
Attribute measured: Kp at 6 h
One number for each entry.

Name the reported Kp at 6 h value associated with the molecule CN1CCN(c2ccc(C(=O)Nc3n[nH]c4ccc(Cc5cc(F)cc(F)c5)cc34)c(NC3CCOCC3)c2)CC1
0.43

====

# Experiment summary: Tmax in Sprague-Dawley rat at 10 mg/kg, po administered as single dose by LC-MS/MS analysis
# Assay type: ADME, organism-based
# Assay conditions: in vivo
Attribute measured: Tmax (h)
One number for each entry, in h.

Name the reported Tmax value associated with the compound CN1CCN(c2ccc(C(=O)Nc3n[nH]c4ccc(Cc5cc(F)cc(F)c5)cc34)c(NC3CCOCC3)c2)CC1
3.08

====

# Assay system: Mast/stem cell growth factor receptor Kit (Homo sapiens, UniProt P10721)
# Sequence (P10721 whole entry): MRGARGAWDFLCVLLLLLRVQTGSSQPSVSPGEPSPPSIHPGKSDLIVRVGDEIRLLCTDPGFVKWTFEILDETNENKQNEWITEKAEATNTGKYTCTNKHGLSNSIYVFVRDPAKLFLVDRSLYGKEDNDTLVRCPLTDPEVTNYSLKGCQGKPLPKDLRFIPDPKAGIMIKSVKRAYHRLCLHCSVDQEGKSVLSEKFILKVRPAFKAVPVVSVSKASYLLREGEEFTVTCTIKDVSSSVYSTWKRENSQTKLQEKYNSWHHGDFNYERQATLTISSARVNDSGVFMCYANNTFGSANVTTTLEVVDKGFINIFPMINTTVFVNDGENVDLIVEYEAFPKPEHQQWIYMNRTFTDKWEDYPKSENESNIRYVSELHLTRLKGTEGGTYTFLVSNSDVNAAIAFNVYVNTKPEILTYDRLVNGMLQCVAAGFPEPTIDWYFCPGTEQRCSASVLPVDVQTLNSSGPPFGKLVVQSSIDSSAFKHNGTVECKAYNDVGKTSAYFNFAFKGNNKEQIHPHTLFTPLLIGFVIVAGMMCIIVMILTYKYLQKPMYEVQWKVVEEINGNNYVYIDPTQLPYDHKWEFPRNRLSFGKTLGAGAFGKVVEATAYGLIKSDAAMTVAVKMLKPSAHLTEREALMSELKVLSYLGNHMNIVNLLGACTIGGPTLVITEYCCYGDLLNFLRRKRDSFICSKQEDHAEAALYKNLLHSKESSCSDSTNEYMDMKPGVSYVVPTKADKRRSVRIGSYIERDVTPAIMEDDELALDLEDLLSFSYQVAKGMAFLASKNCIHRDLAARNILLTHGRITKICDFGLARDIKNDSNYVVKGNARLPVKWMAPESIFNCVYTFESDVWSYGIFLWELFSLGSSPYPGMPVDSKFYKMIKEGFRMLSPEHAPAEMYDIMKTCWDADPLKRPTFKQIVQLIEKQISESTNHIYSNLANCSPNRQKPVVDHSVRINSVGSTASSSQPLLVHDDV
Attribute measured: IC50

Name the reported IC50 value associated with the compound CN1CCN(c2ccc(C(=O)Nc3n[nH]c4ccc(Cc5cc(F)cc(F)c5)cc34)c(NC3CCOCC3)c2)CC1
> 1000 nM

====

# Experiment summary: AUC (infinity) in Sprague-Dawley rat at 10 mg/kg, iv administered as single dose by LC-MS/MS analysis
# Format: ADME, organism-based
# Design: dose 10 mg/kg, time infinity, route intravenous
# Assay conditions: in vivo
Attribute measured: AUC(0-inf) (µM·h)
Numbers only, in µM·h.

Name the reported AUC(0-inf) value associated with the compound CN1CCN(c2ccc(C(=O)Nc3n[nH]c4ccc(Cc5cc(F)cc(F)c5)cc34)c(NC3CCOCC3)c2)CC1 [ENTRECTINIB]
15.1

====

# Experiment summary: Intrinsic clearance in human liver microsomes at […] preincubated for 5 mins followed by NADPH addition measured after 5 to 30 mins by LC-MS/MS analysis
# Type: ADME
# Assay conditions: read-out: CLH
Hi, to clarify the labels: 1 (yes) covers CLint scaled from 20 mL/min/kg upward, 0 (no) covers anything below 20 mL/min/kg.

Is reported CLint scaled greater than or equal to 20 mL/min/kg here: O=C(Nc1n[nH]c2ccc(Cc3cc(F)cc(F)c3)cc12)c1ccc(CN2CCCCC2)cc1NC1CCOCC1
1 (yes)

Is reported CLint scaled greater than or equal to 20 mL/min/kg here: CN(C)CCN(C)C(=O)c1ccc(C(=O)Nc2n[nH]c3ccc(Cc4cc(F)cc(F)c4)cc23)c(NC2CCOCC2)c1
1 (yes)

Is reported CLint scaled greater than or equal to 20 mL/min/kg here: CN1CCC(Oc2ccc(C(=O)Nc3n[nH]c4ccc(Cc5cc(F)cc(F)c5)cc34)c(NC3CCOCC3)c2)CC1
0 (no)

Is reported CLint scaled greater than or equal to 20 mL/min/kg here: CN1CCN(c2ccc(C(=O)Nc3n[nH]c4ccc(Cc5cc(F)cc(F)c5)cc34)c(NCCF)c2)CC1
1 (yes)

Is reported CLint scaled greater than or equal to 20 mL/min/kg here: O=C(Nc1n[nH]c2ccc(Cc3cc(F)cc(F)c3)cc12)c1ccc(N2CCNCC2)cc1NC1CCOCC1
0 (no)

Is reported CLint scaled greater than or equal to 20 mL/min/kg here: CN1CCN(c2ccc(C(=O)Nc3n[nH]c4ccc(Cc5cc(F)cc(F)c5)cc34)c(N[C@H]3CC[C@H](O)CC3)c2)CC1
1 (yes)

Is reported CLint scaled greater than or equal to 20 mL/min/kg here: CN1CCN(c2ccc(C(=O)Nc3n[nH]c4ccc(Cc5cc(F)cc(F)c5)cc34)c(NC3CCOCC3)c2)CC1
1 (yes)
